Data origin, for the record: patent US5138069A

Test system: Renal Hypertensive Rats
Assay: Antihypertensive effects in renal hypertensive rats
Assay type: in vivo
Conditions: Rattus norvegicus; Table 25; tested as sodium salt; oral, 100 mg/kg or less
quantity: minimal effective dose at 100 mg/kg

Just so you know, measured minimal effective dose at 100 mg/kg for CCCCc1nc(Cl)c(COC)n1Cc1ccc(-c2ccccc2C(=O)O)cc1 [Example 98] came out at < 100 mg/kg

Just so you know, measured minimal effective dose at 100 mg/kg for CCCCc1nc(Cl)c(COC)n1Cc1ccc(NC(=O)c2c(Cl)ccc(Cl)c2C(=O)O)cc1 [Example 17] came out at > 100 mg/kg

Just so you know, measured minimal effective dose at 100 mg/kg for CCCCc1nc(CO)c(Cl)n1Cc1ccc(C(=O)c2ccccc2C(=O)O)cc1 [Example 203] came out at < 100 mg/kg

Just so you know, measured minimal effective dose at 100 mg/kg for CCCCc1nc(Cl)c(CC(=O)OC)n1Cc1ccc(NS(=O)(=O)C(F)(F)F)cc1 [Example 21] came out at > 100 mg/kg

Just so you know, measured minimal effective dose at 100 mg/kg for CCCCc1nc(CC(=O)OC)c(Cl)n1Cc1ccc(NC(=O)c2ccccc2C(=O)O)cc1 [Example 3] came out at > 100 mg/kg

Just so you know, measured minimal effective dose at 100 mg/kg for CCCCc1nc(Cl)c(CO)n1Cc1ccc(C(=O)c2ccccc2C(=O)O)cc1 [Example 202] came out at > 100 mg/kg

Just so you know, measured minimal effective dose at 100 mg/kg for CCCCc1nc(Cl)c(COC)n1Cc1ccc(C(=O)Nc2cccc(C)c2C(=O)O)cc1 [Example 80] came out at < 100 mg/kg

Just so you know, measured minimal effective dose at 100 mg/kg for CCCCc1nc(Cl)c(CO)n1Cc1ccc(-c2ccccc2CC(=O)O)cc1 [Example 175] came out at > 100 mg/kg
